target: G1/S-specific cyclin-D1 (Homo sapiens); assay: Kinase Inhibition Assay
Sequence (P24385 whole entry): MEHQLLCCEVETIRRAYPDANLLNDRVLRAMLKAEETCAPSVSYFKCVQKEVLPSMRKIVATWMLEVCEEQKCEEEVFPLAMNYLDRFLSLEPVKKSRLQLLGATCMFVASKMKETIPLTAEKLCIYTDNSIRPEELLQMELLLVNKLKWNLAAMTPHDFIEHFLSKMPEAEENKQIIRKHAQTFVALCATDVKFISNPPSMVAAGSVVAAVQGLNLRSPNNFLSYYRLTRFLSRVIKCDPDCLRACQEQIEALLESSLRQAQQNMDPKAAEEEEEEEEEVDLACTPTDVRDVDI
Consider the following molecules; for each one, report its pIC50.
# reply with the number alone; pIC50 is -log10 of concentration in mol/L

Query block: I'd like to know its pIC50. The molecule in question is CNc1nc(C)c(-c2ccnc(Nc3cccc(CN)c3)n2)s1
Result block: 6.64

Query block: I'd like to know its pIC50. The molecule in question is Cc1nc(C)c(-c2ccnc(Nc3ccc(N)cc3)n2)s1
Result block: 5.42

Query block: I'd like to know its pIC50. The molecule in question is Cc1nc(C)c(-c2ccnc(Nc3ccc(N4CCN(CCO)CC4)cc3)n2)s1
Result block: 6.37

Query block: I'd like to know its pIC50. The molecule in question is CNc1nc(C)c(-c2ccnc(Nc3cccc(CNC(C)=O)c3)n2)s1
Result block: 6.05

Query block: I'd like to know its pIC50. The molecule in question is Cc1nc(N)sc1-c1ccnc(Nc2ccc(N3CCOCC3)cc2)n1
Result block: 5.62

Query block: I'd like to know its pIC50. The molecule in question is CCNc1nc(C)c(-c2ccnc(Nc3cccc(CN)c3)n2)s1
Result block: 6.96

Query block: I'd like to know its pIC50. The molecule in question is Cc1nc(C)c(-c2ccnc(Nc3ccc(N4CCNCC4)cc3)n2)s1
Result block: 6.19

Query block: I'd like to know its pIC50. The molecule in question is Cc1nc(C)c(-c2ccnc(Nc3ccc(N4CCN(C)CC4)cc3)n2)s1
Result block: 6.80

Query block: I'd like to know its pIC50. The molecule in question is Cc1nc(C)c(-c2ccnc(Nc3ccc(N4CCOCC4)cc3)n2)s1
Result block: 5.40

Query block: I'd like to know its pIC50. The molecule in question is CNc1nc(C)c(-c2ccnc(Nc3ccc(N4CCNCC4)cc3)n2)s1
Result block: 8.15

###

Values of IC50 reported for G1/S-specific cyclin-E1 (Homo sapiens) appear below.
Only the number, expressed in nM, is required.

Query block: I'd like to know its IC50. The compound in question is Cc1nc(C)c(-c2ccnc(Nc3ccc(N)cc3)n2)s1
Result block: 230

Query block: I'd like to know its IC50. The compound in question is Cc1nc(C)c(-c2ccnc(Nc3ccc(N4CCN(CCO)CC4)cc3)n2)s1
Result block: 2200

Query block: I'd like to know its IC50. The compound in question is Cc1nc(C)c(-c2ccnc(Nc3ccc(N4CCNCC4)cc3)n2)s1
Result block: 1100

Query block: I'd like to know its IC50. The compound in question is CNc1nc(C)c(-c2ccnc(Nc3cccc(CN)c3)n2)s1
Result block: 410

Query block: I'd like to know its IC50. The compound in question is CCNc1nc(C)c(-c2ccnc(Nc3cccc(CN)c3)n2)s1
Result block: 330

Query block: I'd like to know its IC50. The compound in question is Cc1nc(C)c(-c2ccnc(Nc3ccc(N4CCN(C)CC4)cc3)n2)s1
Result block: 1020

Query block: I'd like to know its IC50. The compound in question is Cc1nc(C)c(-c2ccnc(Nc3ccc(N4CCOCC4)cc3)n2)s1
Result block: 2000

Query block: I'd like to know its IC50. The compound in question is CNc1nc(C)c(-c2ccnc(Nc3cccc(CNC(C)=O)c3)n2)s1
Result block: 430
